biological target: GCGR extracellular domain (human, UniProt P47871); assay: SPR
Sequence (P47871 26-477): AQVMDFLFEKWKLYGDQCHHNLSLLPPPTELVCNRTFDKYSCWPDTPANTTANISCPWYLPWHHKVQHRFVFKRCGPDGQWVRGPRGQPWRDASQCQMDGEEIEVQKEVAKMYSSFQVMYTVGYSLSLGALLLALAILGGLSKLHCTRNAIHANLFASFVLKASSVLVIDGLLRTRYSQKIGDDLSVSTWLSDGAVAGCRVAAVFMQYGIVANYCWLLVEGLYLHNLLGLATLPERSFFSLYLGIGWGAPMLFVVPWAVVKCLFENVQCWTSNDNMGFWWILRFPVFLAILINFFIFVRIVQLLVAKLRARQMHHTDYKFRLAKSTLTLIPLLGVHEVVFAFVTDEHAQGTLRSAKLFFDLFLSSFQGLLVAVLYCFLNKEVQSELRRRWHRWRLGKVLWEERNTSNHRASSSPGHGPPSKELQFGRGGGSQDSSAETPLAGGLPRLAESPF
pKd: −log10 of the molar value.
Think of 9 as a floor: if pKd stands on it or above, it is 1; beneath it, -1.

// known answers, use as guide
INSERT INTO results (binder, assigned_class) VALUES
  ('VH Y33A (antibody, V domains shown) VH: EVQLVESGGGLVQPGGSLRLSCAASGFNIYYNAIHWVRQAPGKGLEWVAEFSPYSGSTYYADSVKGRFTISADTSKNTAYLQMNSLRAEDTAVYYCARSAAIVDWYDYFKGFDYWGQGTLVTVSS VL: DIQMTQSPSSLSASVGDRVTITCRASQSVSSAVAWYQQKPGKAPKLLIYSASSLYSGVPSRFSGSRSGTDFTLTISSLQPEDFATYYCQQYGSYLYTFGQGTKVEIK', -1),
  ('VH Y59A (antibody, V domains shown) VH: EVQLVESGGGLVQPGGSLRLSCAASGFNIYYNYIHWVRQAPGKGLEWVAEFSPYSGSTAYADSVKGRFTISADTSKNTAYLQMNSLRAEDTAVYYCARSAAIVDWYDYFKGFDYWGQGTLVTVSS VL: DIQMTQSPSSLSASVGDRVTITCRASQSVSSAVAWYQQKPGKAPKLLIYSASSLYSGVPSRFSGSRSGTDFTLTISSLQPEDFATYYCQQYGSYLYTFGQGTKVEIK', 1);

Moving on to another binder below.
Ask: For this binder, is measured pKd 9 or higher? VH Y54A (antibody, V domains shown) VH: EVQLVESGGGLVQPGGSLRLSCAASGFNIYYNYIHWVRQAPGKGLEWVAEFSPASGSTYYADSVKGRFTISADTSKNTAYLQMNSLRAEDTAVYYCARSAAIVDWYDYFKGFDYWGQGTLVTVSS VL: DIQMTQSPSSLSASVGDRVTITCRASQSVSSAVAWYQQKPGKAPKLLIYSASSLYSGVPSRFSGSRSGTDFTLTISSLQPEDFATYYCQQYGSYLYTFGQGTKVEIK
Reply: -1
